All values here come from the supplement of paper PMC4466140.

biological target: AgBzz1-D2; test: SPOT peptide array binding signal intensity (averaged, normalized) (arbitrary units (background-subtracted, floor 0; scale differs between SH3 domains)); higher = stronger binding of the SH3 domain to the peptide
# SPOT peptide array binding signal intensity listing for each entry below
measured-property: SPOT peptide array binding signal intensity

INSERT INTO measurements (binder, inequality_sign, value_reported) VALUES
  ('PAPPPPPRASRPTPN', '=', 8),
  ('PVLPPPRSPNRPTLS', '=', 1),
  ('RLPAPPPPPRRGPAP', '=', 154),
  ('KTITLEVESSDTIDN', '≤', 0),
  ('GRLRPKRIAPWHLIQ', '=', 15.5),
  ('WRPRIVPILPYITRL', '=', 7.5),
  ('KRKRFNLLLPKPYLT', '=', 19.5);
